Reported IC50 values for the following compounds.
target: NR1/NR2B (Homo sapiens (Human), UniProt Q05586+Q13224); assay: Cell assay: FDSS Ca2+ influx inhibition in HEK293 cells expressing NR1/NR2B; conditions: NR2B NAM IC50, HEK293 cells expressing NR1/NR2B, Ca2+ influx;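 also: Fluo-8 Ca2+ signal read on Hamamatsu FDSS 6000 after glutamate, glycine and Ca2+ challenge following 10 min compound preincubation, end/baseline fluorescence ratio compared with MK801 control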
Sequence (Q13224 27-1484, other chains not shown): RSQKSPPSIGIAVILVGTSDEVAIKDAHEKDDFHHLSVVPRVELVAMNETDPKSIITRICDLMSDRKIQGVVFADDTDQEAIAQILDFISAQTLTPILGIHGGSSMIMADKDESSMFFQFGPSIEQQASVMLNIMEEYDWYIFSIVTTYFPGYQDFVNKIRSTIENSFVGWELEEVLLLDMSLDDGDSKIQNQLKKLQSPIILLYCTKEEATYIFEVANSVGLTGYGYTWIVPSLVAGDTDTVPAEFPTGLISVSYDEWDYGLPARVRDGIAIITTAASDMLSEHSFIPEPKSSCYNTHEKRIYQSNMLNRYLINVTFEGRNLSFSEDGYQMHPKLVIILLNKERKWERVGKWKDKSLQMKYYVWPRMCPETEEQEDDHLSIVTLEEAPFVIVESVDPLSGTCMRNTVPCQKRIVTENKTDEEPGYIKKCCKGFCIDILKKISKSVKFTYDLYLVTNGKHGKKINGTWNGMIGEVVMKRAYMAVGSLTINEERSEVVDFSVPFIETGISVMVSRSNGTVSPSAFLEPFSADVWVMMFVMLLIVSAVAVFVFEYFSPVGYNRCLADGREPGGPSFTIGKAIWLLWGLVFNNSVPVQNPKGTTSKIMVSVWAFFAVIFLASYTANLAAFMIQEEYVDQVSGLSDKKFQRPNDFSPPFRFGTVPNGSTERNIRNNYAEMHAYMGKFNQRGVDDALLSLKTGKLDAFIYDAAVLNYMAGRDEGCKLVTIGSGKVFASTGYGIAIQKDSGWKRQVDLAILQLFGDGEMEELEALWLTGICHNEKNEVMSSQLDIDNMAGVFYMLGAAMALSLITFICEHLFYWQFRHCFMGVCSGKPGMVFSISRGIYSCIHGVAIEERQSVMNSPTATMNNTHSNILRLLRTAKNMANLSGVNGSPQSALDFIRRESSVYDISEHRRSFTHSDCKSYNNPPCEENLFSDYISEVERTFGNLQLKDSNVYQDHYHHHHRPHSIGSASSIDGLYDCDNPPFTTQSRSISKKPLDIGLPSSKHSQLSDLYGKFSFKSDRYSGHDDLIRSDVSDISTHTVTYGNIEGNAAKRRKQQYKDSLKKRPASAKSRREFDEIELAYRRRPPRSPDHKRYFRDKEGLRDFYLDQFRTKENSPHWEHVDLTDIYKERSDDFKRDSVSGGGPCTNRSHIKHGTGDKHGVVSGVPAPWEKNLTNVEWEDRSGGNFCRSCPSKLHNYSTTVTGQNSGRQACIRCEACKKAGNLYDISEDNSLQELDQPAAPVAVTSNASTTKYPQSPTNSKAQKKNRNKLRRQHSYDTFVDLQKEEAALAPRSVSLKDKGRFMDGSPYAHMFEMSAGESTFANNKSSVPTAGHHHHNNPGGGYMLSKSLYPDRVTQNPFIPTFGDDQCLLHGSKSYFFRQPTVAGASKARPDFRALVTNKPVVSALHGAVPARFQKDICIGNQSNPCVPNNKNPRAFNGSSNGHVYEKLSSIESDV
MEASURED_QUANTITY: IC50 (nM)

INSERT INTO assay_data (compound, value_relation_sign, recorded_value) VALUES
  ('CC(C(=O)c1ccc(O)cc1)N1C[C@@H]2C[C@@](O)(c3ccc(C(C)(C)C)cc3)C[C@@H]2C1 (mixture of isomers) [Example 93]', '≥', 10000),
  ('Oc1ccc(C(O)CN2C[C@@H]3C[C@@](O)(Cc4ccc(C(F)(F)F)cc4)C[C@@H]3C2)nc1 (mixture of isomers) [Example 217]', '=', 36),
  ('Oc1ccc(C(O)CN2C[C@@H]3C[C@@](O)(Cc4ccncc4)C[C@@H]3C2)cc1 (mixture of isomers) [Example 227]', '=', 3150),
  ('Oc1ccc(C(O)CN2C[C@@H]3C[C@@](O)(CC4CC4)C[C@@H]3C2)cc1 (mixture of isomers) [Example 211]', '≥', 10000),
  ('CC(C)(C)C(=O)Nc1ccc(C(O)CN2C[C@@H]3C[C@@](O)(Cc4ccccc4)C[C@@H]3C2)cn1 (mixture of isomers) [Example 286]', '≥', 10000),
  ('Oc1ccc(C(O)CN2C[C@@H]3C[C@@](O)(Cc4ccc(F)cc4)C[C@@H]3C2)cc1F (mixture of isomers) [Example 171]', '=', 22.1),
  ('Oc1ccc(C(O)CN2C[C@@H]3C[C@@](O)(Cc4ccccc4Cl)C[C@@H]3C2)nc1 (mixture of isomers) [Example 246]', '=', 50.3);
